The measurements presented in this section are drawn from paper PMC5829242.

Provide the recorded r1 relaxivity for the entries that follow.
# protocolText: Relaxivity measurements at 1.41T and 37 °C
# Assay type: physicochemical
# conditionDetails: Human Plasma (1.4T)
Numbers only, in mM⁻¹ s⁻¹.

Sample records with r1 relaxivity:
- compound: "NCCCC[C@H]1CN(CC(=O)[O-])[C@@H](CCCCN)CN(CC(=O)[O-])[C@@H](CCCCN)CN(CC(=O)[O-])[C@@H](CCCCN)CN1CC(=O)[O-].[Gd+3] [[GdL5]^−]"
  r1 relaxivity, mM⁻¹ s⁻¹: 5.1
- compound: "CC[C@H]1CN(CC(=O)[O-])[C@@H](CC)CN(CC(=O)[O-])[C@@H](CC)CN(CC(=O)[O-])[C@@H](CC)CN1CC(=O)[O-].[Gd+3] [[GdL2A]^−]"
  r1 relaxivity, mM⁻¹ s⁻¹: 4.7

The record that follows has no r1 relaxivity shown yet.
**Q:** # query: r1 relaxivity of entry CC[C@@H]1CN(CC(=O)[O-])[C@H](CC)CN(CC(=O)[O-])[C@H](CC)CN(CC(=O)[O-])[C@H](CC)CN1CC(=O)[O-].[Gd+3] [[Gd(R)L2B]^−]
**A:** 4.9
